PROCEDURE_SUMMARY: Plasma PK of non-radiolabeled encorafenib
Assay type: in vivo, human
REPORTED_CONDITIONS: human, plasma, oral, 100 mg; Median (Minimum–Maximum)
MEASUREMENT_TYPE: AUC(0-inf) (ng·h/mL)

COMPOUND	MEASUREMENT_TYPE	RESULT_NUMBER
COC(=O)N[C@@H](C)CNc1nccc(-c2cn(C(C)C)nc2-c2cc(Cl)cc(NS(C)(=O)=O)c2F)n1 [encorafenib]	AUC(0-inf)	3610

###

PROCEDURE_SUMMARY: Plasma PK of non-radiolabeled encorafenib
Format: in vivo, human
REPORTED_CONDITIONS: human, plasma, oral, 100 mg; Mean (SD)
MEASUREMENT_TYPE: Cmax (ng/mL)

COMPOUND	MEASUREMENT_TYPE	RESULT_NUMBER
COC(=O)N[C@@H](C)CNc1nccc(-c2cn(C(C)C)nc2-c2cc(Cl)cc(NS(C)(=O)=O)c2F)n1 [encorafenib]	Cmax	1050

###

PROCEDURE_SUMMARY: Plasma PK of non-radiolabeled encorafenib
Format: in vivo, human
REPORTED_CONDITIONS: male, human, plasma, oral, 100 mg, plasma; GeoMean (GeoCV%); read-out: Vz/F
MEASUREMENT_TYPE: Vd/F

COMPOUND	RESULT
COC(=O)N[C@@H](C)CNc1nccc(-c2cn(C(C)C)nc2-c2cc(Cl)cc(NS(C)(=O)=O)c2F)n1 [encorafenib]	~226 L

###

PROCEDURE_SUMMARY: Plasma PK of non-radiolabeled encorafenib
Assay type: in vivo, human
REPORTED_CONDITIONS: human, plasma, oral, 100 mg, plasma; Median (Minimum–Maximum); read-out: AUC0-24

TEST_SMILES	AUC(0-t) [ng·h/mL]
COC(=O)N[C@@H](C)CNc1nccc(-c2cn(C(C)C)nc2-c2cc(Cl)cc(NS(C)(=O)=O)c2F)n1	3570

###

PROCEDURE_SUMMARY: Plasma PK of non-radiolabeled encorafenib
Assay type: in vivo, human
REPORTED_CONDITIONS: human, plasma, oral, 100 mg; GeoMean (GeoCV%)
MEASUREMENT_TYPE: half-life (h)

COMPOUND	DISPLAY_UNIT	RESULT_NUMBER
COC(=O)N[C@@H](C)CNc1nccc(-c2cn(C(C)C)nc2-c2cc(Cl)cc(NS(C)(=O)=O)c2F)n1 [encorafenib]	h	5.88

###

PROCEDURE_SUMMARY: Plasma PK of non-radiolabeled encorafenib
Format: in vivo, human
REPORTED_CONDITIONS: human, plasma, oral, 100 mg; GeoMean (GeoCV%)
MEASUREMENT_TYPE: AUC(0-inf) (ng·h/mL)

TEST_SMILES	RESULT_NUMBER
COC(=O)N[C@@H](C)CNc1nccc(-c2cn(C(C)C)nc2-c2cc(Cl)cc(NS(C)(=O)=O)c2F)n1	3750

###

PROCEDURE_SUMMARY: Plasma PK of non-radiolabeled encorafenib
Type: in vivo, human
REPORTED_CONDITIONS: male, human, plasma, oral, 100 mg, plasma; Median (Minimum–Maximum); read-out: Tmax

TEST_SMILES	Tmax (min)
COC(=O)N[C@@H](C)CNc1nccc(-c2cn(C(C)C)nc2-c2cc(Cl)cc(NS(C)(=O)=O)c2F)n1	46.2
